System: HeLa human cervical tumor cells
METHOD_NOTES: Proliferation Assay (HeLa+Paclitaxel)
MEASUREMENT_CONDITIONS: read-out: Biological Assay 3.0: Proliferation Assay (HeLa + Paclitaxel):, 3 nM paclitaxel, 92 hours with test substance
READOUT_KIND: IC50 (nM)
Report as a plain number; the unit nM is understood.

Some molecules with known IC50 results, for comparison:
{"MOLECULE": "CCOc1cc(F)c(Cn2nc(-c3ncc(OCCCN4CCN(C)CC4)c(Nc4ccnc(NC(C)=O)c4)n3)c3ccccc32)c(F)c1", "IC50 [nM]": 160}
{"MOLECULE": "CCOc1cc(F)c(Cn2nc(-c3ncc(OCCCN4CCN(CC(F)(F)F)CC4)c(Nc4ccnc(NC(C)=O)c4)n3)c3ccccc32)c(F)c1", "IC50 [nM]": 440}
{"MOLECULE": "CCOc1cc(F)c(Cn2nc(-c3ncc(OCCCCN4CC(F)(F)C4)c(Nc4ccncc4Cl)n3)c3ccccc32)c(F)c1", "IC50 [nM]": 140}
{"MOLECULE": "CCOc1cc(F)c(Cn2nc(-c3ncc(OCCN4CCOCC4)c(Nc4ccncc4)n3)c3ccccc32)c(F)c1 [Example 3-1-1, reference compound]", "IC50 [nM]": 260}
{"MOLECULE": "CN1CCN(CCCOc2cnc(-c3nn(Cc4c(F)cc(OCC5CC5)cc4F)c4ccccc34)nc2Nc2ccncc2Cl)CC1", "IC50 [nM]": 69}

Then this molecule:
Lookup: Which IC50 reading was recorded for the molecule CCOc1cc(F)c(Cn2nc(-c3ncc(OCCCN4CCOCC4)c(Nc4ccnc(NC(C)=O)c4)n3)c3ccccc32)c(F)c1 ?
Found: 78

###

Tested on: HeLa human cervical tumor cells
METHOD_NOTES: Proliferation Assay (HeLa+Paclitaxel)
MEASUREMENT_CONDITIONS: read-out: Biological Assay 3.0: Proliferation Assay (HeLa + Paclitaxel):, 3 nM paclitaxel, 92 hours with test substance
pIC50: −log10 of the molar value.
Would you please tag the item 1.0 when its pIC50 is 7 or above, and 0.0 when it is below?

{"COMPOUND": "CCOc1cc(F)c(Cn2nc(-c3ncc(OCCCN4CCN(C)CC4)c(Nc4ccnc(C)c4)n3)c3ccccc32)c(F)c1 [Example 2-1-8]", "GROUP": 0.0}
{"COMPOUND": "CCOc1cc(F)c(Cn2nc(-c3ncc(OCCCCN4CCC(F)(F)CC4)c(Nc4cc(C)ncc4C)n3)c3ccccc32)c(F)c1 [Example 2-3-5]", "GROUP": 1.0}
{"COMPOUND": "CCOc1cc(F)c(Cn2nc(-c3ncc(OCCCN4CCN(C)CC4)c(Nc4ccnc(C)n4)n3)c3ccccc32)c(F)c1 [Example 2-1-7]", "GROUP": 0.0}
{"COMPOUND": "CCOc1cc(F)c(Cn2nc(-c3ncc(OCCCCN4CCC(F)(F)CC4)c(Nc4ccnc(C)n4)n3)c3ccccc32)c(F)c1 [Example 2-3-4]", "GROUP": 1.0}
{"COMPOUND": "Fc1cc(OCC(F)F)cc(F)c1Cn1nc(-c2ncc(OCCCN3CCOCC3)c(Nc3ccncn3)n2)c2ccccc21 [Example 2-1-9]", "GROUP": 0.0}

Now look at this entry.
Lookup: Quick check, pIC50 >= 7? CCOc1cc(F)c(Cn2nc(-c3ncc(OCCCN4CCN(C)CC4)c(Nc4ccncn4)n3)c3ccccc32)c(F)c1 [Example 2-1-6]
Found: 0.0

###

TARGET: catalytic domain of human Bub1 (amino acids 704-1085) (Homo sapiens, UniProt O43683)
Construct: catalytic domain of human Bub1 (amino acids 704-1085); His6 (N); made in house; host or cells: Hi5 insect cells
Sequence (O43683 704-1085): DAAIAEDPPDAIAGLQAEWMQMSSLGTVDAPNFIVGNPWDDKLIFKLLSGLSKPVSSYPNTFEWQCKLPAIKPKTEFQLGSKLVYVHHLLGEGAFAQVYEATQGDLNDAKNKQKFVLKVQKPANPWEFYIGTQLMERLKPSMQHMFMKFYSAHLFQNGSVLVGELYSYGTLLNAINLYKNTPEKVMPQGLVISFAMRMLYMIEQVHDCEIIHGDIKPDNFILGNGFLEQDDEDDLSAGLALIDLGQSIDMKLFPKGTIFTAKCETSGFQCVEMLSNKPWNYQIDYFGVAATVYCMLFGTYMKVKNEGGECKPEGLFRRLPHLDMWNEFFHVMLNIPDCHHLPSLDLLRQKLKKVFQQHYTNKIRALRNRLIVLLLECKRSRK
METHOD_NOTES: Bub1 kinase assay (TR-FRET)
Format: biochemical
MEASUREMENT_CONDITIONS: 10 μM ATP, 1 μM peptide substrate; read-out: Biological Assay 1: Bub1 kinase assay median IC50
READOUT_KIND: IC50

Some molecules with known IC50 results, for comparison:
{"CHEMICAL_STRING": "CCOc1cc(F)c(Cn2nc(-c3ncc(OCCCN4CCN(C)CC4)c(Nc4ccncn4)n3)c3ccccc32)c(F)c1", "IC50": "9.6 nM"}
{"CHEMICAL_STRING": "Fc1cc(OCC2CC2)cc(F)c1Cn1nc(-c2ncc(OCCCN3CCOCC3)c(Nc3ccncc3Cl)n2)c2ccccc21", "IC50": "50 nM"}
{"CHEMICAL_STRING": "Cc1cc(Nc2nc(-c3nn(Cc4c(F)cc(OCC5CC5)cc4F)c4ccccc34)ncc2OCCCN2CCOCC2)ccn1", "IC50": "370 nM"}

Then this molecule:
Lookup: Requested read-out IC50, target or system catalytic domain of human Bub1 (amino acids 704-1085) (Homo sapiens, UniProt O43683), entry CCOc1cc(F)c(Cn2nc(-c3ncc(OCCCN4CCN(C)CC4)c(Nc4ccnc(C)n4)n3)c3ccccc32)c(F)c1
Found: 12 nM
